system: intestinal triglyceride absorption; experiment: Inhibition of intestinal triglyceride absorption in vivo (rats); design: species or system male Wistar rats; settings: po, 2 h
experimental endpoint: Absorption ED50 or % inhibition

INSERT INTO results (compound, reading) VALUES
  ('Cn1c(=O)c2c(nc(-c3cccs3)n2Cc2ccc(C(C(=O)N[C@@H](CO)c3ccccc3)C3CCCC3)cc2)n(C)c1=O (some centres unmarked)', '> 2 mg/kg'),
  ('Cn1c(=O)c2c(nc(-c3ccc(C(F)(F)F)cc3)n2Cc2ccc(C(C(=O)N[C@@H](CO)c3ccccc3)C3CCCC3)cc2)n(C)c1=O (some centres unmarked)', '> 3 mg/kg'),
  ('Cc1cccc(Cc2nc3c(c(=O)n(C)c(=O)n3C)n2Cc2ccc(C(C(=O)N[C@@H](CO)c3ccccc3)C3CCCC3)cc2)c1 (some centres unmarked)', '> 3 mg/kg'),
  ('COc1ccc(Cc2nc3c(c(=O)n(C)c(=O)n3C)n2Cc2ccc(C(C(=O)N[C@@H](CO)c3ccccc3)C3CCCC3)cc2)cc1 (some centres unmarked)', '> 3 mg/kg'),
  ('Cn1c(=O)c2c(nc(Cc3ccccc3)n2Cc2ccc(C(C(=O)N[C@@H](CO)c3ccccc3)C3CCCCCC3)cc2)n(C)c1=O (some centres unmarked)', '< 2 mg/kg');
